test system: foxtail, giant (giant foxtail, Setaria faberii); assay: Test A greenhouse herbicide test, pre- and postemergence; assay type: in vivo; conditions: Postemergence, 500 g ai/ha; 0 to 100 scale, 0 is no effect, 100 is complete control

# molecule, Foxtail, Giant plant response rating
data = [
    ("CCc1ccc2ccccc2c1-c1c(OC(=O)C2CC2)c(C)nn(C)c1=O [Compound 38]", 50),
    ("Cn1ncc(O)c(-c2ccc(F)c3ccccc23)c1=O [Compound 24]", 60),
    ("Cc1nn(C)c(=O)c(-c2ccc(F)c3ccccc23)c1O [Compound 41]", 100),
    ("CCc1nn(C)c(=O)c(-c2c(C)oc3ccc(Cl)cc23)c1O [Compound 77]", 0),
]

----------
tested on: corn (Zea mays); test: Test C greenhouse herbicide test, pre- and postemergence; format: in vivo; settings: Preemergence, 125 g ai/ha; scale 0 to 100, 0 is no effect, 100 is complete control
Attribute: Plant response rating, Corn

# compound, Plant response rating, Corn
data = [
    ("CCC(=O)Oc1c(C)nn(C)c(=O)c1-c1ccc(F)c2ccccc12 [Compound 113]", 20),
    ("Cc1nn(C)c(=O)c(-c2cccc3ccccc23)c1O [Compound 11]", 0),
    ("CC(=O)Oc1c(C)nn(C)c(=O)c1-c1c(C)sc2ccc(Cl)cc12 [Compound 108]", 5),
    ("CC(=O)Oc1c(C)nn(C)c(=O)c1-c1c(C)cc(C)c2ccccc12 [Compound 99]", 10),
    ("COC(=O)Oc1c(OC)nn(C)c(=O)c1-c1c(C)ccc2ccccc12 [Compound 136]", 0),
    ("Cc1ccc2ccccc2c1-c1c(OC(=O)OC(C)C)c(C)nn(C)c1=O [Compound 72]", 0),
    ("Cc1nn(C)c(=O)c(-c2ccc(Br)c3ccccc23)c1O [Compound 75]", 0),
    ("CC(=O)Oc1c(C)nn(C)c(=O)c1-c1c(C)sc2ccc(C(F)(F)F)cc12 [Compound 132]", 0),
    ("COC(=O)Oc1cnn(C)c(=O)c1-c1c(C)sc2ccccc12 [Compound 97]", 0),
    ("CC(=O)Oc1c(Cl)nn(C)c(=O)c1-c1c(C)sc2ccc(C(F)(F)F)cc12 [Compound 152]", 10),
    ("Cc1ccc2ccccc2c1-c1c(O)c(Br)nn(C)c1=O [Compound 23]", 30),
    ("CCc1ccc2ccccc2c1-c1c(O)c(C)nn(C)c1=O [Compound 32]", 0),
    ("CCc1oc2ccc(C)cc2c1-c1c(O)c(C)nn(C)c1=O [Compound 10]", 0),
    ("Cc1cc(C)c2sc(C)c(-c3c(O)c(C)nn(C)c3=O)c2c1 [Compound 2]", 0),
    ("CCCC(=O)Oc1c(C)nn(C)c(=O)c1-c1c(C)sc2ccc(C)cc12 [Compound 105]", 5),
]

----------
test system: foxtail, giant (giant foxtail, Setaria faberii); assay: Test E greenhouse herbicide test, pre- and postemergence; format: in vivo; details: Preemergence, 31 g ai/ha; scale 0 to 100, 0 no effect, 100 complete control
measured attribute: Plant response rating, Foxtail, Giant

# mol smiles, measured attribute, test value
data = [
    ("Cc1cc(C)c2ccccc2c1-c1c(O)c(C)nn(C)c1=O", "Plant response rating, Foxtail, Giant", 95),
    ("COC(=O)Oc1c(C)nn(C)c(=O)c1-c1c(C)sc2ccc(C)cc12", "Plant response rating, Foxtail, Giant", 50),
    ("Cc1nn(C)c(=O)c(-c2ccc(Br)c3ccccc23)c1O", "Plant response rating, Foxtail, Giant", 0),
    ("CCc1sc2c(C)cc(C)cc2c1-c1c(O)c(C)nn(C)c1=O", "Plant response rating, Foxtail, Giant", 5),
    ("Cc1nn(C)c(=O)c(-c2ccc(F)c3ccccc23)c1O", "Plant response rating, Foxtail, Giant", 30),
    ("Cc1ccc2sc(C)c(-c3c(OC(=O)OC(C)C)c(C)nn(C)c3=O)c2c1", "Plant response rating, Foxtail, Giant", 5),
]

----------
test system: panicum, fall (fall panicum, Panicum dichotomiflorum); assay: Test E greenhouse herbicide test, pre- and postemergence; type: in vivo; settings: 125 g ai/ha, Preemergence; scale 0 to 100 (0 no effect, 100 complete control)
Attribute: Plant response rating, Panicum, Fall

# mol smiles, Plant response rating, Panicum, Fall
data = [
    ("Cn1nc(Br)c(O)c(-c2cccc3ccccc23)c1=O", 65),
    ("Cc1cc2ccccc2c(-c2c(O)c(C)nn(C)c2=O)c1C", 90),
    ("CCc1sc2c(C)cc(C)cc2c1-c1c(O)c(C)nn(C)c1=O", 100),
    ("CCCC(=O)Oc1c(C)nn(C)c(=O)c1-c1c(C)sc2ccc(C)cc12", 98),
]

----------
Attribute: Oat, Wild plant response rating
tested on: oat, wild (wild oat, Avena fatua); experiment: Test D controlled growth environment herbicide test, pre- and postemergence; type: in vivo; conditions: Postemergence, 31 g ai/ha; scale 0 to 100 (0 no effect, 100 complete control)

# mol smiles, Oat, Wild plant response rating
measured = [
    ("Cc1nn(C)c(=O)c(-c2c(C)sc3c(C)cc(Cl)cc23)c1O", 85),
    ("CCc1sc2c(C)cc(C)cc2c1-c1c(O)c(C)nn(C)c1=O", 15),
    ("Cc1nn(C)c(=O)c(-c2ccc(F)c3ccccc23)c1O", 70),
    ("Cc1nn(C)c(=O)c(-c2cccc3ccccc23)c1O", 40),
    ("COC(=O)Oc1c(C)nn(C)c(=O)c1-c1c(C)sc2ccc(C)cc12", 95),
    ("CCc1sc2ccc(C)cc2c1-c1c(O)c(C)nn(C)c1=O", 10),
    ("Cc1nn(C)c(=O)c(-c2ccc(Br)c3ccccc23)c1O", 50),
    ("Cc1ccc2sc(C)c(-c3c(OC(=O)OC(C)C)c(C)nn(C)c3=O)c2c1", 85),
]

----------
tested on: oilseed rape (Brassica napus); assay: Test C greenhouse herbicide test, pre- and postemergence; format: in vivo; details: Preemergence, 62 g ai/ha; scale 0 to 100, 0 is no effect, 100 is complete control
Values of Plant response rating, Oilseed Rape greater than or equal to 70 map to Satisfied; values below map to Not satisfied.

# mol smiles, label value
rows = [
    ("CC(=O)Oc1c(Cl)nn(C)c(=O)c1-c1c(C)sc2ccc(C(F)(F)F)cc12", "Satisfied"),
    ("CCc1oc2ccc(C)cc2c1-c1c(O)c(C)nn(C)c1=O", "Not satisfied"),
    ("CCc1ccc2ccccc2c1-c1c(O)c(C)nn(C)c1=O", "Satisfied"),
    ("CC(=O)Oc1c(C)nn(C)c(=O)c1-c1c(C)sc2ccc(Cl)cc12", "Satisfied"),
    ("Cc1cc(C)c2sc(C)c(-c3c(O)c(C)nn(C)c3=O)c2c1", "Not satisfied"),
    ("COC(=O)Oc1c(C)nn(C)c(=O)c1-c1c(C)sc2ccc(C)cc12", "Not satisfied"),
    ("CC(=O)Oc1c(Cl)nn(C)c(=O)c1-c1c(C)sc2ccc(Cl)cc12", "Satisfied"),
    ("Cc1ccc2ccccc2c1-c1c(OC(=O)OC(C)C)c(C)nn(C)c1=O", "Not satisfied"),
]

----------
tested on: morningglory (Ipomoea coccinea); assay: Test C greenhouse herbicide test, pre- and postemergence; assay type: in vivo; conditions: Preemergence, 31 g ai/ha; scale 0 to 100, 0 is no effect, 100 is complete control
Description: […]
Attribute: Plant response rating, Morningglory

# mol smiles, Plant response rating, Morningglory
data = [
    ("Cc1ccc2ccccc2c1-c1c(O)c(C(F)(F)F)nn(C)c1=O", 45),
    ("CC(=O)Oc1c(C)nn(C)c(=O)c1-c1c(C)sc2ccc(Cl)cc12", 80),
    ("Cc1nn(C)c(=O)c(-c2ccc(F)c3ccccc23)c1O", 85),
    ("Cc1cc(C)c2ccccc2c1-c1c(O)c(C)nn(C)c1=O", 95),
]

----------
tested on: field violet (Viola arvensis); assay: Test D controlled growth environment herbicide test, pre- and postemergence; type: in vivo; conditions: Postemergence, 31 g ai/ha; scale 0 to 100 (0 no effect, 100 complete control)
Attribute: Field Violet plant response rating
measured attribute: Field Violet plant response rating

# compound, test value
rows = [
    ("Cc1nn(C)c(=O)c(-c2c(C)sc3ccc(Br)cc23)c1O [Compound 22]", 70),
    ("Cc1nn(C)c(=O)c(-c2ccc(F)c3ccccc23)c1O [Compound 41]", 100),
    ("Cc1cc(C)c2sc(C)c(-c3c(O)c(C)nn(C)c3=O)c2c1 [Compound 2]", 60),
    ("CC(=O)Oc1c(C)nn(C)c(=O)c1-c1c(C)sc2ccc(Cl)cc12 [Compound 108]", 90),
    ("Cc1nn(C)c(=O)c(-c2c(C)sc3c(C)cc(Cl)cc23)c1O [Compound 35]", 65),
]

Hello, the source for this data is patent US10597388B2, in case you need it.
